Measured koff values are reported for all entries that follow.
Target: T1, recombinant human CLEC-1 protein with His Tag (#1704-CL R&D Systems) (human, UniProt Q8NC01 74-280)
T1 construct: Bought protein; also called His-CLEC1; His Clec-1; not shown: His tag
T1 sequence: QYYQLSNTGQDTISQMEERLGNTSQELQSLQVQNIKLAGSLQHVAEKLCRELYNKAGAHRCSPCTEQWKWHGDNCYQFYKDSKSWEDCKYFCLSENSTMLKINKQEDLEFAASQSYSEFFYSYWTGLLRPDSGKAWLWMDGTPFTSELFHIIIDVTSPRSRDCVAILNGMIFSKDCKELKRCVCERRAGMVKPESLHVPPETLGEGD
Assay: Blitz biolayer interferometry, His-CLEC1 on Ni-NTA biosensor, antibody at 20 ug/mL
Value expressed in s⁻¹; do not type the unit.

See these solved cases before continuing.
murine anti-hCLEC1 antibody 15E3-G3 (antibody, V domains shown, Mouse hybridoma antibody) VH: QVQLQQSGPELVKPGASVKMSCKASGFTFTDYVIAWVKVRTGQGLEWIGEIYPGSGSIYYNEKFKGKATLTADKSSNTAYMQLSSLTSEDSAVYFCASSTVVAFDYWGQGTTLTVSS VL: EIVLTQSPTTLAASPGEKIIITCSDSSSISSNYLHWYQQKPGFSPKLLIYGTSNLASGVPARFSGSGSGTTYSLTIGTMEAEDVATYYCQQGSSIPRTFGGGTKLEIK
0.00101
murine anti-hCLEC1 antibody 14H9-F3 (antibody, V domains shown, Mouse hybridoma antibody) VH: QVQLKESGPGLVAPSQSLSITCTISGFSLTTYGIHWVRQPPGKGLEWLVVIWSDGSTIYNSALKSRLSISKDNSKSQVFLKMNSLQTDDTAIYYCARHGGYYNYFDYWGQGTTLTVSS VL: DIQMNQSPSSLSASLGDTITITCHASQNINVWLSWYQQKPGNIPKLLIYKASNLHTGVPSRFSGSGSGTTFTLTIDSLQPEDIATYYCQQGQSYWTFGGGTKLEIK
0.00074

Enquiry: What measured koff goes with murine anti-hCLEC1 antibody 10F4-H2 (antibody, V domains shown, Mouse hybridoma antibody) VH: QVQLQQSGTELARPGASVKMSCKASGYIFTDYTIHWVKQRPGQGLEWVGYINPSSGYTNYNQKFKAKATLTADKSSSTAYMQLSSLTSEDSAVYYCTPMFRRSYFDYWGQGTTLTVSS VL: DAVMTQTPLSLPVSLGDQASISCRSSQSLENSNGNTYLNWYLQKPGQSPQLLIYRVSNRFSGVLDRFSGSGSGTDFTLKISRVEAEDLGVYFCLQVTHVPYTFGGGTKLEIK ?
Return: 0.000621

Enquiry: What measured koff goes with murine anti-hCLEC1 antibody 5D1-A5 (antibody, V domains shown, Mouse hybridoma antibody) VH: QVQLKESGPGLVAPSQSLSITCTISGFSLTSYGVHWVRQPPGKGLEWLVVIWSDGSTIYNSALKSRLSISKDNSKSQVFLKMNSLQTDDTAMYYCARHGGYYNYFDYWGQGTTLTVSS VL: DIQMNQSPSSLSASLGDTITITCHASQNINVWLSWYQQKPGNIPKLLIYKASNLHTGVPSRFSGSGSGTGFTLTISSLQPEDIATYYCQQGQSYWTFGGGTKLEIK ?
Return: 0.00124

Enquiry: What measured koff goes with murine anti-hCLEC1 antibody 11H11-G11 (antibody, V domains shown, Mouse hybridoma antibody) VH: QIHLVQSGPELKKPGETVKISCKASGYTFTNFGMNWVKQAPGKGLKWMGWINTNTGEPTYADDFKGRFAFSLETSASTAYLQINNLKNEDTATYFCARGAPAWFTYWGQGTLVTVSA VL: DIQMTQSPASLSASVGETVTITCRATENIYSYLAWYQQKQGKSPQFLVYNAKTLAEGMPSRFSGSGSGTQFSLKINILQPEDFGTYYCQHHFGTPLTFGAGTKLELK ?
Return: 0.000787
